# System: Aspergillus niger
# ASSAY OVERVIEW: Inhibition of Aspergillus niger amyloglucosidase assessed as release of p-nitrophenol at 1000 uM using p-nitrophenyl glycoside as substrate by spectrometric assay relative to control
PROPERTY LABEL: inhibition (%)

A selection of reference data follows.
INSERT INTO assay_data (molecular_string, measured_value) VALUES
  ('OC[C@]1(c2cccc(F)c2)NC[C@H](O)[C@H]1O', 1.4),
  ('COc1cccc([C@@]2(CO)NC[C@H](O)[C@H]2O)c1', 5),
  ('OC[C@@]1(c2cccc(F)c2)NC[C@@H](O)[C@@H]1O', 8.3);

(1) OC[C@@]1(c2c(F)c(F)c(F)c(F)c2F)NC[C@@H](O)[C@@H]1O
(2) OC[C@]1(c2c(F)c(F)c(F)c(F)c2F)NC[C@H](O)[C@H]1O
Query :: Pick one: 1 or 2 . Which one has the lower reported inhibition? API: response body contains the label of the selected item.
Result :: 2

###

# TARGET OF ASSAY: Sucrase-isomaltase, intestinal (Rattus norvegicus, UniProt P23739)
# Sequence (P23739 1-1013 limits assumed): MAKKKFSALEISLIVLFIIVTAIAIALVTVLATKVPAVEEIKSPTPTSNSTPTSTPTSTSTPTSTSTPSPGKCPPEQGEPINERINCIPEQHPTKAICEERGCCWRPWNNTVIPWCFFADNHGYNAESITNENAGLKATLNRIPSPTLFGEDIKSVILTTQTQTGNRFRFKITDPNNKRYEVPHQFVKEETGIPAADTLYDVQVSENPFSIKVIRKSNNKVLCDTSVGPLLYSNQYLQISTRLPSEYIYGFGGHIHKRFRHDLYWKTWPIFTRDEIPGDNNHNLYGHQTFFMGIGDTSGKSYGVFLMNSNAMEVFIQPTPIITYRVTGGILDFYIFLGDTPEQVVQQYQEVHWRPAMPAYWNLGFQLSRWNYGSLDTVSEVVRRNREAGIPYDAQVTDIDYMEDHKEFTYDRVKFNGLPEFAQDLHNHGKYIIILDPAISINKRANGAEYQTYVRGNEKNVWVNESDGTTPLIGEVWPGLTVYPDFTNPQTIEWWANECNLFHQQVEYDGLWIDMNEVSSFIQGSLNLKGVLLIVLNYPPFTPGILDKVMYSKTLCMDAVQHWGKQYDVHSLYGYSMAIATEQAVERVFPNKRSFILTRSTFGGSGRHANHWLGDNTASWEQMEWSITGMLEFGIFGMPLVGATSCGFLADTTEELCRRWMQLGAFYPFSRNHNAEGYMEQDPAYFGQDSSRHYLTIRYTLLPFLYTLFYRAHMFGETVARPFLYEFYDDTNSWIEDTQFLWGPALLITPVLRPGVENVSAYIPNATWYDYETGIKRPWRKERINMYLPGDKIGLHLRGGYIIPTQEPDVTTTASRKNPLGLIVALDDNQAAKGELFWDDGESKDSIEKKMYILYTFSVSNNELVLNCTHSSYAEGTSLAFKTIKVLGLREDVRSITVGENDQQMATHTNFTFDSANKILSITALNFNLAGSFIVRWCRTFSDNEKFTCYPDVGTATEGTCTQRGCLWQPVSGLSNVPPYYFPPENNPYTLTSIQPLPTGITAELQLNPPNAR
# Sequence (P23739 1014-1841 limits assumed): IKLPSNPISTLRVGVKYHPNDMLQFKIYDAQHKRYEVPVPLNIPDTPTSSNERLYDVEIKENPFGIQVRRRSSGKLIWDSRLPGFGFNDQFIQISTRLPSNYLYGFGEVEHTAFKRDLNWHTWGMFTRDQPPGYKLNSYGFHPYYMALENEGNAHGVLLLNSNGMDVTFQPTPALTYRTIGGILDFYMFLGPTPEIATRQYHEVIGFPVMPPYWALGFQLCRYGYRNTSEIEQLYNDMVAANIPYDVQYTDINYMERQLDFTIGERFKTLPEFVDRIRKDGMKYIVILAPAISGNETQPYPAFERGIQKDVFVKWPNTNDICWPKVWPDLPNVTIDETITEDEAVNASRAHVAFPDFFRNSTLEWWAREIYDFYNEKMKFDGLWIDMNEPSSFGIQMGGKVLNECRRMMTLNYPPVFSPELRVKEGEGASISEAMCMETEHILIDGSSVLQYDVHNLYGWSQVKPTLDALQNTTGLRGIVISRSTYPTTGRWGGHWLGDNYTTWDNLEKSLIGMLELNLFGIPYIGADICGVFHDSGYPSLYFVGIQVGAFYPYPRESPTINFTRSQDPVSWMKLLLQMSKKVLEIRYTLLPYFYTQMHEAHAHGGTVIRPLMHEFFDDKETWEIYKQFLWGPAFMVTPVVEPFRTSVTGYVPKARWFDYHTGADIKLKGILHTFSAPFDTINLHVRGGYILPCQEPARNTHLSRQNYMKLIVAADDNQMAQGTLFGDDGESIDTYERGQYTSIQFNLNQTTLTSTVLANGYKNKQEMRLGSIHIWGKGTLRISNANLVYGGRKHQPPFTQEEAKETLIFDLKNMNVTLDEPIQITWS
# ASSAY OVERVIEW: Inhibition of rat intestinal sucrase assessed as release of p-nitrophenol using p-nitrophenyl glycoside as substrate by spectrometric assay
PROPERTY LABEL: IC50 (nM)

Below, each entry is followed by its recorded IC50 result.
INSERT INTO measurements (molecular_string, reading_unit, measured_value) VALUES
  ('OC[C@@]1(c2ccc(O)cc2)NC[C@@H](O)[C@@H]1O', 'nM', 740),
  ('OC[C@]1(c2cccc(F)c2)NC[C@H](O)[C@H]1O', 'nM', 950);

(P) CCCCCCCCC[C@@]1(CO)NC[C@H](O)[C@H]1O
(Q) Cc1ccc([C@@]2(CO)NC[C@H](O)[C@H]2O)cc1
Query :: Response body: label of entry with the larger IC50; valid values P , Q . Kindly state the label of the option you pick.
Result :: Q
(Q: 1000 nM, P: 680 nM)
